// provenance: patent US4304864A

Tested on: acyl-CoA synthetase
Test: Substrate specificity of acyl-CoA synthetase (fatty acids)
Format: biochemical, Candida lipolytica
Details: fatty acid concentration 0.25 mM
Activity (μmol acyl-CoA/min.) values for the compounds below.

[
  {
    "compound": "O=C(O)CCCCCCCCCCCCCCCO [16-Hydroxypalmitic acid]",
    "Activity (μmol acyl-CoA/min.)": 1.5
  },
  {
    "compound": "CCCCCCCCCCCCCCCC(=O)O [Palmitic acid]",
    "Activity (μmol acyl-CoA/min.)": 20.4
  },
  {
    "compound": "CCCCCCCCCCCCCCC(=O)O [Pentadecanoic acid]",
    "Activity (μmol acyl-CoA/min.)": 18.0
  },
  {
    "compound": "CCCCCCCCCCCCCCCCCCC(=O)O [Nonadecanoic acid]",
    "Activity (μmol acyl-CoA/min.)": 1.7
  },
  {
    "compound": "CCCCCCCCCCCC(=O)O [Lauric acid]",
    "Activity (μmol acyl-CoA/min.)": 1.0
  },
  {
    "compound": "CC/C=C\\C/C=C\\C/C=C\\CCCCCCCC(=O)O [Linolenic acid]",
    "Activity (μmol acyl-CoA/min.)": 22.0
  },
  {
    "compound": "O=C(O)CCCCCCCCCCCCCCC(=O)O [Hexadecanedioic acid]",
    "Activity (μmol acyl-CoA/min.)": 0.6
  },
  {
    "compound": "CCCCCCCCCCCCCC(=O)O [Myristic acid]",
    "Activity (μmol acyl-CoA/min.)": 20.8
  },
  {
    "compound": "CCCCCCCCCCCCCCCCCCCC(=O)O [Arachidic acid]",
    "Activity (μmol acyl-CoA/min.)": 0.6
  },
  {
    "compound": "CCCCC/C=C\\C/C=C\\CCCCCCCC(=O)O [Linoleic acid]",
    "Activity (μmol acyl-CoA/min.)": 19.7
  },
  {
    "compound": "CCCCCCCC/C=C\\CCCCCCCC(=O)O [Oleic acid]",
    "Activity (μmol acyl-CoA/min.)": 23.8
  }
]
